System under test: T1, human p40-His (human, UniProt P29460 23-328)
T1 construct: Made by Akeso Biopharma; construct limits and tag not described; also called human IL-12/IL-23 p40 protein domain; human IL-12/IL-23 p40; not shown: His tag
T1 sequence (looked up): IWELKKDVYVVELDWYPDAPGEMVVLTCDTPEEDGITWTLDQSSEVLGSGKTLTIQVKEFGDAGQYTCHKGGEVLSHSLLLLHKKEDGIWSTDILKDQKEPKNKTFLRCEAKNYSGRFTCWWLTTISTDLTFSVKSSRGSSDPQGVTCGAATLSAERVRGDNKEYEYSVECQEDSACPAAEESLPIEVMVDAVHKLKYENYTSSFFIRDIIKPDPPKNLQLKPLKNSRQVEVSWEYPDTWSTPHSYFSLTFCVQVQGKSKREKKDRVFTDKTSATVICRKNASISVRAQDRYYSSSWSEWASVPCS
Run description: BLI (Fortebio), p40-His on HIS1K sensor, antibody 5-0.31 nM, 37 °C, 1:1 fit

{"Binder": "H5L9 (antibody, human IgG1, kappa, V domains shown, human IgG1 (P01857) / kappa (P01834) constant regions; also called humanized antibody H5L9) VH: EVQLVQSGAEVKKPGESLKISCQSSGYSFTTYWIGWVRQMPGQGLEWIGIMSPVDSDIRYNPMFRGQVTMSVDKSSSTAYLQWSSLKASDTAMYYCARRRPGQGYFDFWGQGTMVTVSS VL: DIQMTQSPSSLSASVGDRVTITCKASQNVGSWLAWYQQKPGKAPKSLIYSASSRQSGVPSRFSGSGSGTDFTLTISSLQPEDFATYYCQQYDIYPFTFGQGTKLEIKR", "Unit tag": "s⁻¹", "koff": 0.0092}
{"Binder": "H5L11 (antibody, human IgG1, kappa, V domains shown, human IgG1 / kappa constant regions; also called humanized antibody H5L11) VH: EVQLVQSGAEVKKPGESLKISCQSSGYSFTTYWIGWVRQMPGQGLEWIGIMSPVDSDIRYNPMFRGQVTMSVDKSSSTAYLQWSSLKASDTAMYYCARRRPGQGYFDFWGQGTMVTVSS VL: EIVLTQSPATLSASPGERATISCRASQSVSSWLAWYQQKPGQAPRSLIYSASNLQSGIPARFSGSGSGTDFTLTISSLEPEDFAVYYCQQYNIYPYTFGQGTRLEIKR", "Unit tag": "s⁻¹", "koff": 0.000428}
